Quick reference for kon among some binders
- TEST SYSTEM: T1, recombinant human ILT4 (LILRB2) (human, UniProt Q8N423 22-460)
- T1 construct: Bought protein (Acro Biosystems or R&D Systems); also called ILTR4
- T1 sequence (Q8N423 other isoform, or with tags, fused parts or gaps limits assumed): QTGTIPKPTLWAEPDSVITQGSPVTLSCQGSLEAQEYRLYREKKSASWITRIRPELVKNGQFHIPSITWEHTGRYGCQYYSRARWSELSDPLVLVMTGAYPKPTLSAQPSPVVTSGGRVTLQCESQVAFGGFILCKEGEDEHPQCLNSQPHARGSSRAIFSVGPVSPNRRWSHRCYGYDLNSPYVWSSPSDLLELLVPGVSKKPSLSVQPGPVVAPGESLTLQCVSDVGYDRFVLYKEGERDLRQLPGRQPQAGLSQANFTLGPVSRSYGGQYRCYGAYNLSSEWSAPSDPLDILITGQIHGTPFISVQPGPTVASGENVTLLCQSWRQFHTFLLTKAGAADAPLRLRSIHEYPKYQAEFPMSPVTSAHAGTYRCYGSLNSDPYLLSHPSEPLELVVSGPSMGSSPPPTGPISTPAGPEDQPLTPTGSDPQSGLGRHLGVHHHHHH
- ASSAY REMARKS: SPR, Biacore T200, mAb captured on anti-Fc, ILT4 injected, medium resolution, 25 C
- Experimental: Label-free SPR analysis on a Biacore T200 instrument was utilized to measure antibody affinity to ILT4. CM4 sensor chips from Cytiva Inc. were utilized for all medium resolution analyses. […] The sensorgrams were double-referenced and fit globally to a 1:1 interaction model with a term included for mass transport, and the equilibrium dissociation constant was calculated as KD=koff/kₒₙ. […]
REPORTED ENDPOINT: kon (M⁻¹ s⁻¹)

- BINDER: "Hz77-LALA (antibody, human IgG1, kappa, L234A L235A, V domains shown, Humanized L77S2, human IgG1 L234A/L235A, kappa; also called Humanized 77_01; Hz 77 01) VH: QVQLVQSGAEVKKPGSSVKVSCKASGYSFTGYSVNWVRQAPGQGLEWIGRINPYNGDIFNNQKFKGRATITVDKSTSTAYMELSSLRSEDTAVYYCARGTTVGGAWFAYWGQGTLVTVSS VL: DIVMTQSPDSLAVSLGERATINCRASESVDSYGYSFLHWYQQKPGQPPKLLIYLASNLESGIPDRFSGSGSGTDFTLTISSLQAEDVAVYYCQQSNEDLMYTFGGGTKVEIKR"
  RECORDED RESULT: 835000
- BINDER: "L45S4 (antibody, IgG2a, V domains shown, also called Murine 45; mouse anti-human ILT4 antibody L45S4) VH: EVQLQQSGPELVKPGASVKISCKASGYTFTDYYMNWVKQSHGKSLEWIGDINPNNGGTSYNQKFKGKATLTVDKSSSTAYMELRSLTSEDSAVYYCARGGAELTGTYWYFDVWGTGTTVTVSS VL: DIQMTQSPASLSISVGETVTITCRASENIYSNLAWYQQKQGKSPQVLVYGATNLADGVPSRFSGSGSGTQYSLKIKSLQSEDFGSYYCQHFWDSPFTFGSGTKLEIK"
  RECORDED RESULT: 401000
- BINDER: "Chimeric 156 (antibody, V domains shown, Chimeric form of L156S3) VH: QVQLKQSGAELVRPGASVKLSCRASGYTFTDYYMNWVKQRPGQGLEWIARIYPGVYRTHYNEKFKDKATLTAEKSSSTAYMELSSLTSEDSAVYFCARSGYYGGTYEEDAMDYWGQGTSVTVSS VL: DIQMTQSPASLSVSVGETVTITCRASENIYSNLAWYQQKQGKSPQLLVYAATSLADGVPSRFRGSGSGTQYSLKISSLQSEDFGNYYCQNFWDTPYTFGGGTKLEIK"
  RECORDED RESULT: 373000
- BINDER: "L156S3 (antibody, IgG2a, V domains shown, also called mouse anti-human ILT4 antibody L156S3) VH: QVQLKQSGAELVRPGASVKLSCRASGYTFTDYYMNWVKQRPGQGLEWIARIYPGVYRTHYNEKFKDKATLTAEKSSSTAYMELSSLTSEDSAVYFCARSGYYGGTYEEDAMDYWGQGTSVTVSS VL: DIQMTQSPASLSVSVGETVTITCRASENIYSNLAWYQQKQGKSPQLLVYAATSLADGVPSRFRGSGSGTQYSLKISSLQSEDFGNYYCQNFWDTPYTFGGGTKLEIK"
  RECORDED RESULT: 269000
